All values here come from patent US9346815B2.

# experimentalSystem: isolated recombinant JAK1 kinase domain (Homo sapiens (Human), UniProt P23458)
# Sequence (P23458 875-1153): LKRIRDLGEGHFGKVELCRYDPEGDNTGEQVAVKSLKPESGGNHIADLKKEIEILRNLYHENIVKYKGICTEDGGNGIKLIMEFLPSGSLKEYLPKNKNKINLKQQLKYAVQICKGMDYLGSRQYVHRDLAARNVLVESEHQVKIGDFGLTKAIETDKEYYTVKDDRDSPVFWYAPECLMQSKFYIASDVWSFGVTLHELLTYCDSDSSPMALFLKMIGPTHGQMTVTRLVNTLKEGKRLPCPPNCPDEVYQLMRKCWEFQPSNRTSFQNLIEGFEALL
# methodSummary: JAK1 enzyme assay (Caliper LabChip, peptide phosphorylation)
# Assay type: biochemical
# conditionLabel: isolated recombinant JAK1 kinase domain, 25 μM ATP
Below, each entry is listed with its recorded pKi.
Quick note: pKi values are minus log10 of concentrations in mol/L.

Challenge: Field request: pKi | item: CN(CC(F)(F)F)C1CCN(C(=O)c2ccc(-n3cc(NC(=O)c4cnn5cccnc45)c(-c4cc(Cl)ccc4OC(F)F)n3)cc2)CC1 [Example 303]
Response given: 8.72

Challenge: Returns the measured pKi for the input molecule. Input: CN(C)CC(O)Cn1cc(NC(=O)c2cnn3cccnc23)c(-c2cc(Cl)ccc2OC(F)F)n1 (stereo not shown) [Example 404]
Response given: 8.77

Challenge: What value of measured pKi is listed for CN1CCN(C/C=C/Cn2cc(NC(=O)c3cnn4cccnc34)c(-c3cc(Cl)ccc3OC(F)F)n2)CC1 [Example 395] ?
Response given: 8.89

Challenge: GET /values?readout=pKi&item= CN(CCCC(N)=O)C1CCN(c2nc(-c3cc(Cl)ccc3OC(F)F)c(NC(=O)c3cnn4cccnc34)s2)CC1 [Example 193]
Response given: 8.65
